Values compiled from patent US9777010B2.

tested system: RBP4-TTR interaction (Homo sapiens (Human), UniProt P02753)
assay overview: TR-FRET (HTRF) assay for retinol-induced RBP4-TTR interaction
measurement setup: in the presence of 1 μM retinol; read-out: HTRF assay for antagonists of RBP4-TTR interaction: IC50
endpoint: IC50 (nM)
# output: bare number, implied unit nM

// IC50 lookup, key: COCCN1CCc2c(C(=O)N3CCC(c4cccc(F)c4C(F)(F)F)CC3)n[nH]c2C1
1.62
